// provenance: patent US4211772A

Molecular target: COMT (Rattus norvegicus, UniProt P22734)
Construct: The enzyme is extracted from rat liver; from tissue; host or cells: rat liver
Sequence (P22734 1-221 isoform P22734-2): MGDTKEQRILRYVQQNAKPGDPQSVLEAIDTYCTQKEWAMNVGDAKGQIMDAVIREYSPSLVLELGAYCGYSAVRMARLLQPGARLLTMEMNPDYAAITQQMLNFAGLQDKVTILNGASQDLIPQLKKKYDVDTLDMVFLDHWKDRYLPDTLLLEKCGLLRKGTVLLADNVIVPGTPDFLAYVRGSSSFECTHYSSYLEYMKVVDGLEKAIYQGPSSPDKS
Assay: Inhibition of COMT in vitro (enzyme from rat liver, 4-nitrocatechol substrate)
Format: biochemical
Conditions: 10^-5 mole/l, in dimethylsulfoxide solution; read-out: percentages of inhibition (COMT)
attribute.measured: inhibition at 10 µM (%)
One number for each entry, in %.

These solved cases illustrate the format of a correct answer.
{"molecule": "C[C@@H]1O[C@@H](OC[C@H]2O[C@@H](Oc3c(-c4ccc(O)c(O)c4)oc4cc(O)cc(O)c4c3=O)[C@H](O)[C@@H](O)[C@@H]2O)[C@@H]2OC(c3ccc(O)cc3)O[C@@H]2[C@H]1O (stereo partly shown)", "attribute.measured": "inhibition at 10 µM", "value.measured": 40}
{"molecule": "Cc1ccc(C2(C)O[C@@H]3[C@@H](O)[C@H](C)O[C@@H](OC[C@H]4O[C@@H](Oc5c(-c6ccc(O)c(O)c6)oc6cc(O)cc(O)c6c5=O)[C@H](O)[C@@H](O)[C@@H]4O)[C@@H]3O2)cc1 (stereo partly shown)", "attribute.measured": "inhibition at 10 µM", "value.measured": 72}
{"molecule": "C[C@@H]1O[C@@H](OC[C@H]2O[C@@H](Oc3c(-c4ccc(O)c(O)c4)oc4cc(O)cc(O)c4c3=O)[C@H](O)[C@@H](O)[C@@H]2O)[C@@H]2OC(C)(c3ccc(Cl)cc3)O[C@@H]2[C@H]1O (stereo partly shown)", "attribute.measured": "inhibition at 10 µM", "value.measured": 27}

Could you now look at the following molecule, please?
Q: State its inhibition at 10 µM: C[C@@H]1O[C@@H](OC[C@H]2O[C@@H](Oc3c(-c4ccc(O)c(O)c4)oc4cc(O)cc(O)c4c3=O)[C@H](O)[C@@H](O)[C@@H]2O)[C@@H]2OC3(CCC4CCCCC4C3)O[C@@H]2[C@H]1O (stereo partly shown)
Result: 0

----------
Molecular target: Aldose Reductase (Bos taurus)
Construct: The enzyme is extracted from beef eye lenses; from tissue; host or cells: beef eye lenses
Assay: Inhibition of aldose reductase in vitro (enzyme from beef eye lenses, glyceraldehyde substrate)
Assay type: biochemical
Conditions: 10^-4 mole/l, in DMF solution; read-out: percentages of inhibition (aldose reductase)
attribute.measured: inhibition at 100 µM (%)
Answers are plain numbers, in %.

These solved cases illustrate the format of a correct answer.
{"compound": "C[C@@H]1O[C@@H](Oc2c(-c3cc(O)c(O)c(O)c3)oc3cc(O)cc(O)c3c2=O)[C@H](O)[C@H](O)[C@H]1O [Myricitrin, reference compound]", "target": "Aldose Reductase (Bos taurus)", "inhibition at 100 µM / %": 83}
{"compound": "C[C@@H]1O[C@@H](OC[C@H]2O[C@@H](Oc3c(-c4ccc(O)c(O)c4)oc4cc(O)cc(O)c4c3=O)[C@H](O)[C@@H](O)[C@@H]2O)[C@@H]2OC3(O[C@@H]2[C@H]1O)C1CC2CC(C1)CC3C2 (some centres unmarked)", "target": "Aldose Reductase (Bos taurus)", "inhibition at 100 µM / %": 100}
{"compound": "CC1(C)OC[C@H]2O[C@@H](Oc3c(-c4ccc(O)c(O)c4)oc4cc(O)cc(O)c4c3=O)[C@H](O)[C@@H](O)[C@@H]2O1", "target": "Aldose Reductase (Bos taurus)", "inhibition at 100 µM / %": 83}
{"compound": "C[C@@H]1O[C@@H](OC[C@H]2O[C@@H](Oc3c(-c4ccc(O)c(O)c4)oc4cc(O)cc(O)c4c3=O)[C@H](O)[C@@H](O)[C@@H]2O)[C@@H]2OC(C)(C)O[C@@H]2[C@H]1O", "target": "Aldose Reductase (Bos taurus)", "inhibition at 100 µM / %": 82}

Could you now look at the following compound, please?
Q: # return inhibition at 100 µM of CC1(C)O[C@@H]2[C@@H](O)[C@H](OC[C@H]3O[C@@H](Oc4c(-c5ccc(O)c(O)c5)oc5cc(O)cc(O)c5c4=O)[C@H](O)[C@@H](O)[C@@H]3O)OC[C@@H]2O1 (system: Aldose Reductase (Bos taurus))
Result: 42
